System: NCI-H23 complex spheroids with HUVEC/MSC, viability
Experiment: Anticancer human tumor NCI-H23 cell line growth inhibition [RAS];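 also: spheroids exposed to compound for 7 days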;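 as to viability, T/C: 100% = DMSO vehicle control viability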
Settings: second compound 10 µM; first compound 0.1 µM; stronger effect = lower value
Source text: RAS pathway inhibitors in Combinations in Complex Spheroids A high-throughput screen of multi-cell type tumor spheroids was designed to identify active combinations of RAS pathway inhibitors and targeted small molecules. Complex spheroids include a stromal component modeled by human endothelial cells (HUVEC) and fibroblasts modeled by human mesenchymal stem cells (MSCs). […] Compounds. […] If the clinical Cmax for an agent had not been determined, the highest concentration tested was 10 microM. […]
READOUT NAME: viability, T/C (%)
Please reply with the bare figure in % and do not write the unit itself.

Solved cases below.
1. Cc1nc(N2CCC3(CC2)COC(C)C3N)c(CO)nc1Sc1ccnc(N)c1Cl (stereo unspecified) + C#Cc1c(F)ccc2cc(O)cc(-c3ncc4c(N5CC6CCC(C5)N6)nc(OCC56CCCN5CC(F)C6)nc4c3F)c12    35.2
2. C=CC(=O)Nc1cc(Nc2nccc(-c3cn(C)c4ccccc34)n2)c(OC)cc1N(C)CCN(C)C + C#Cc1c(F)ccc2cc(O)cc(-c3ncc4c(N5CC6CCC(C5)N6)nc(OCC56CCCN5CC(F)C6)nc4c3F)c12    34

Quick check: viability, T/C on NCI-H23 complex spheroids with HUVEC/MSC, viability, item CC(=O)OC12COC1CC(O)C1(C)C(=O)C(O)C3=C(C)C(OC(=O)C(O)C(NC(=O)OC(C)(C)C)c4ccccc4)CC(O)(C(OC(=O)c4ccccc4)C21)C3(C)C (stereo unspecified) + C#Cc1c(F)ccc2cc(O)cc(-c3ncc4c(N5CC6CCC(C5)N6)nc(OCC56CCCN5CC(F)C6)nc4c3F)c12 ? 20.7

Next record, please: CC(C)NCC(C(=O)N1CCN(c2ncnc3c2C(C)CC3O)CC1)c1ccc(Cl)cc1 (stereo unspecified) + C#Cc1c(F)ccc2cc(O)cc(-c3ncc4c(N5CC6CCC(C5)N6)nc(OCC56CCCN5CC(F)C6)nc4c3F)c12 40.9

Next record, please: C=CC(=O)N1CCN(c2nc(OCC3CCCN3C)nc3c(F)c(-c4nc(N)cc(C)c4C(F)(F)F)c(Cl)cc23)C(C)C1 (stereo unspecified) + C#Cc1c(F)ccc2cc(O)cc(-c3ncc4c(N5CC6CCC(C5)N6)nc(OCC56CCCN5CC(F)C6)nc4c3F)c12 32.3

Next record, please: CC(C)n1nc(-c2ccc3oc(N)nc3c2)c2c(N)ncnc21 + C#Cc1c(F)ccc2cc(O)cc(-c3ncc4c(N5CC6CCC(C5)N6)nc(OCC56CCCN5CC(F)C6)nc4c3F)c12 17

###

The entries below are paired with their reported viability, T/C.
Tested on: NCI-H23 complex spheroids with HUVEC/MSC, viability
Assay: Anticancer human tumor NCI-H23 cell line growth inhibition [RAS];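 also: spheroids exposed to compound for 7 days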;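 as to viability, T/C: 100% = DMSO vehicle control viability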
Settings: second compound 0.3 µM; first compound 1 µM; stronger effect = lower value
Please reply with the bare figure in % and do not write the unit itself.

1) C=CC(=O)Nc1cc(Nc2nccc(-c3cn(C)c4ccccc34)n2)c(OC)cc1N(C)CCN(C)C + CCn1c(-c2cccnc2C(C)OC)c2c3cc(ccc31)N1CCOC(CC(NC(=O)C(C(C)C)N(C)C(=O)C3(F)CCN(C(=O)C#CC(C)(C)N(C)C)CC3)C(=O)N3CCCC(N3)C(=O)OCC(C)(C)C2)C1    21.6

Quick check: viability, T/C on NCI-H23 complex spheroids with HUVEC/MSC, viability, item CC1(O)CCCC1n1c(=O)c(C(F)F)cc2cnc(NC3CCN(S(C)(=O)=O)CC3)nc21 (configuration not stated) + CCn1c(-c2cc(N3CCN(C)CC3)cnc2C(C)OC)c2c3cc(ccc31)-c1csc(n1)CC(NC(=O)C1CC1C)C(=O)N1CCCC(N1)C(=O)OCC(C)(C)C2 ? 12.8

###

The entries below are paired with their reported viability, T/C.
System: NCI-H23 complex spheroids with HUVEC/MSC, viability
Assay: Anticancer human tumor NCI-H23 cell line growth inhibition [RAS];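 also: spheroids exposed to compound for 7 days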;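 as to viability, T/C: 100% = DMSO vehicle control viability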
Conditions: second compound 0.03 µM; first compound 3.16 µM; stronger effect = lower value
Please reply with the bare figure in % and do not write the unit itself.

# lookup: viability, T/C of CC(C)NCC(C(=O)N1CCN(c2ncnc3c2C(C)CC3O)CC1)c1ccc(Cl)cc1 (centres undefined) + CCn1c(-c2cccnc2C(C)OC)c2c3cc(ccc31)N1CCOC(CC(NC(=O)C(C(C)C)N(C)C(=O)C3(F)CCN(C(=O)C#CC(C)(C)N(C)C)CC3)C(=O)N3CCCC(N3)C(=O)OCC(C)(C)C2)C1 13.8

Next record, please: CC1(O)CCCC1n1c(=O)c(C(F)F)cc2cnc(NC3CCN(S(C)(=O)=O)CC3)nc21 (centres undefined) + CCn1c(-c2cccnc2C(C)OC)c2c3cc(ccc31)N1CCOC(CC(NC(=O)C(C(C)C)N(C)C(=O)C3(F)CCN(C(=O)C#CC(C)(C)N(C)C)CC3)C(=O)N3CCCC(N3)C(=O)OCC(C)(C)C2)C1 14.6

Next record, please: C[C@@H](NC(=O)c1ncnc(N)c1Cl)c1ncc(C(=O)Nc2cc(C(F)(F)F)c(Cl)cn2)s1 + CCn1c(-c2cc(N3CCN(C)CC3)cnc2C(C)OC)c2c3cc(ccc31)-c1csc(n1)CC(NC(=O)C1CC1C)C(=O)N1CCCC(N1)C(=O)OCC(C)(C)C2 29.3

Next record, please: CC(=O)OC12COC1CC(O)C1(C)C(=O)C(O)C3=C(C)C(OC(=O)C(O)C(NC(=O)OC(C)(C)C)c4ccccc4)CC(O)(C(OC(=O)c4ccccc4)C21)C3(C)C (centres undefined) + CCn1c(-c2cc(N3CCN(C)CC3)cnc2C(C)OC)c2c3cc(ccc31)-c1csc(n1)CC(NC(=O)C1CC1C)C(=O)N1CCCC(N1)C(=O)OCC(C)(C)C2 16.4

###

Test system: NCI-H23 complex spheroids with HUVEC/MSC, viability
Test: Anticancer human tumor NCI-H23 cell line growth inhibition [RAS];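 also: spheroids exposed to compound for 7 days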;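 as to viability, T/C: 100% = DMSO vehicle control viability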
Conditions: second compound 0.03 µM; first compound 3.16 µM; stronger effect = lower value
READOUT NAME: viability, T/C (%)
Please reply with the bare figure in % and do not write the unit itself.

1. CC(Nc1ccc2c(c1)OCCn1cc(N3C(=O)OCC3C(F)F)nc1-2)C(N)=O (centres undefined) + CCn1c(-c2cc(N3CCN(C)CC3)cnc2C(C)OC)c2c3cc(ccc31)-c1csc(n1)CC(NC(=O)C1CC1C)C(=O)N1CCCC(N1)C(=O)OCC(C)(C)C2    13.9

# lookup: viability, T/C of CC(C)NCC(C(=O)N1CCN(c2ncnc3c2C(C)CC3O)CC1)c1ccc(Cl)cc1 (centres undefined) + CCn1c(-c2cc(N3CCN(C)CC3)cnc2C(C)OC)c2c3cc(ccc31)-c1csc(n1)CC(NC(=O)C1CC1C)C(=O)N1CCCC(N1)C(=O)OCC(C)(C)C2 12.1

Next record, please: CC(=O)OC12COC1CC(O)C1(C)C(=O)C(O)C3=C(C)C(OC(=O)C(O)C(NC(=O)OC(C)(C)C)c4ccccc4)CC(O)(C(OC(=O)c4ccccc4)C21)C3(C)C (centres undefined) + CCn1c(-c2cccnc2C(C)OC)c2c3cc(ccc31)N1CCOC(CC(NC(=O)C(C(C)C)N(C)C(=O)C3(F)CCN(C(=O)C#CC(C)(C)N(C)C)CC3)C(=O)N3CCCC(N3)C(=O)OCC(C)(C)C2)C1 11.5

Next record, please: Cc1nc(N2CCC3(CC2)COC(C)C3N)c(CO)nc1Sc1ccnc(N)c1Cl (centres undefined) + CCn1c(-c2cc(N3CCN(C)CC3)cnc2C(C)OC)c2c3cc(ccc31)-c1csc(n1)CC(NC(=O)C1CC1C)C(=O)N1CCCC(N1)C(=O)OCC(C)(C)C2 8.53

###

Test system: NCI-H23 complex spheroids with HUVEC/MSC, viability
Assay: Anticancer human tumor NCI-H23 cell line growth inhibition [RAS];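 also: spheroids exposed to compound for 7 days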
Details: curve of first compound; second compound 1 µM
READOUT NAME: IC50

1. C=CC(=O)Nc1cc(Nc2nccc(-c3cn(C)c4ccccc34)n2)c(OC)cc1N(C)CCN(C)C + C=CC(=O)N1CCN(c2nc(OCC3CCCN3C)nc3c(F)c(-c4nc(N)cc(C)c4C(F)(F)F)c(Cl)cc23)C(C)C1    < 3.16 nM
2. NC1c2ccccc2OC12CCN(c1cnc3c(N4CCCc5ncccc54)n[nH]c3n1)CC2 (centres undefined) + C=CC(=O)N1CCN(c2nc(OCC3CCCN3C)nc3c(F)c(-c4nc(N)cc(C)c4C(F)(F)F)c(Cl)cc23)C(C)C1    < 31.6 nM
3. CCC(CC)c1cc(NC2CCC(N)C2)n2nccc2n1 (centres undefined) + C#Cc1c(F)ccc2cc(O)cc(-c3ncc4c(N5CC6CCC(C5)N6)nc(OCC56CCCN5CC(F)C6)nc4c3F)c12    1440 nM

# lookup: IC50 of C[C@@H](NC(=O)c1ncnc(N)c1Cl)c1ncc(C(=O)Nc2cc(C(F)(F)F)c(Cl)cn2)s1 + C#Cc1c(F)ccc2cc(O)cc(-c3ncc4c(N5CC6CCC(C5)N6)nc(OCC56CCCN5CC(F)C6)nc4c3F)c12 > 10000 nM

Next record, please: CCN1CCN(Cc2ccc(Nc3ncc(F)c(-c4cc(F)c5nc(C)n(C(C)C)c5c4)n3)nc2)CC1 + C#Cc1c(F)ccc2cc(O)cc(-c3ncc4c(N5CC6CCC(C5)N6)nc(OCC56CCCN5CC(F)C6)nc4c3F)c12 56.2 nM

Next record, please: CC(=O)OC12COC1CC(O)C1(C)C(=O)C(O)C3=C(C)C(OC(=O)C(O)C(NC(=O)OC(C)(C)C)c4ccccc4)CC(O)(C(OC(=O)c4ccccc4)C21)C3(C)C (centres undefined) + C=CC(=O)N1CCN(c2nc(OCC3CCCN3C)nc3c(F)c(-c4nc(N)cc(C)c4C(F)(F)F)c(Cl)cc23)C(C)C1 < 31.6 nM

Next record, please: NC1c2ccccc2OC12CCN(c1cnc3c(N4CCCc5ncccc54)n[nH]c3n1)CC2 (centres undefined) + C#Cc1c(F)ccc2cc(O)cc(-c3ncc4c(N5CC6CCC(C5)N6)nc(OCC56CCCN5CC(F)C6)nc4c3F)c12 57 nM

Next record, please: Nc1ccn(C2OC(CO)C(O)C2(F)F)c(=O)n1 (centres undefined) + C#Cc1c(F)ccc2cc(O)cc(-c3ncc4c(N5CC6CCC(C5)N6)nc(OCC56CCCN5CC(F)C6)nc4c3F)c12 4.97 nM

Cited source for all entries: PubChem BioAssay AID2060885
